- tested-target: IKZF1 ZNF2_ZNF3 Q1F degron-tagged CD19 CAR (Homo sapiens, UniProt Q13422, Q146F)
- Construct: ZNF2_ZNF3 Q1F degron (GERPFFCNQCGASFTQKGNLLRHIKLHSGEKPFKCHLCNYACRRRDALTGHLRTHS); fused on or other part: anti-CD19 scFv, CD28 transmembrane domain, 4-1BB costimulatory domain, CD3 zeta signaling domain (the CAR that carries the degron), and Nluc
- Sequence (Q13422 whole entry Q146F, the tested form may be a part): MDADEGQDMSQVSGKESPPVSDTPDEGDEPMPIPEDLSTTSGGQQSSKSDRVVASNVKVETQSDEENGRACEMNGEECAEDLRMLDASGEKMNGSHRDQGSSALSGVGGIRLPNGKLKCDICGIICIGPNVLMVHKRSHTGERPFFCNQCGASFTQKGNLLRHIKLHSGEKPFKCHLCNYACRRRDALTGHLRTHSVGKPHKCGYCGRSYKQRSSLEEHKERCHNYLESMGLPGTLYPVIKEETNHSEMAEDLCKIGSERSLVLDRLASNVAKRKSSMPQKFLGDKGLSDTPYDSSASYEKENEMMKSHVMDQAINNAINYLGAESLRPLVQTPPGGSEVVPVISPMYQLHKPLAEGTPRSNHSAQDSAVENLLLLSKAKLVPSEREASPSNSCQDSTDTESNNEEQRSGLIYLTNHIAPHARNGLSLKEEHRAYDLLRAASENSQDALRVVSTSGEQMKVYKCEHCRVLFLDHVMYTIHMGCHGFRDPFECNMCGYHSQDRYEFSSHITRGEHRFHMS
- experimental-protocol: Degradation of Q1F degron-tagged CD19 CAR in Jurkat cells (flow cytometry of CAR levels)
- Assay type: cell-based
- study-conditions: Jurkat cells expressing CD19 CAR tagged with IKZF1 ZNF2_ZNF3 Q1F; 18 hours at 37° C.; CAR levels normalized to untreated cells; read-out: Q1F Jurkat IC50
Could you mark each record TRUE if its DC50 falls strictly under 4 nM, and FALSE if it equals or exceeds it?

> print(dat)
                                   compound  label.class
1  O=C1CCC(N2Cc3c(cc(F)c(C4CCN(Cc5ccc(-n6ccnc6)cc5)CC4)c3F)C2=O)C(=O)N1 (stereo not drawn)        FALSE
2  Cc1ccc(CN2CCC(c3c(F)cc4c(c3F)CN(C3CCC(=O)NC3=O)C4=O)CC2)cc1 (stereo not drawn)         TRUE

// query Just wondering, is DC50 of Cc1cc(Br)cnc1CN1CCC(c2c(F)cc3c(c2F)CN(C2CCC(=O)NC2=O)C3=O)CC1 (stereo not drawn) below 4 nM?
// result TRUE

// query Can you handle O=C1CCC(N2Cc3c(cc(F)c(-c4ccc5c(n4)NCCC5)c3F)C2=O)C(=O)N1 (stereo not drawn) next?
// result FALSE

// query Can you handle CN(CCN1CCC(O)(c2c(F)cc3c(c2F)CN(C2CCC(=O)NC2=O)C3=O)CC1)Cc1ccccc1 (stereo not drawn) next?
// result FALSE

// query Can you handle O=C1CCC(N2Cc3c(cc(F)c(C4(O)CCN(Cc5cccc(-n6cccn6)c5)CC4)c3F)C2=O)C(=O)N1 (stereo not drawn) next?
// result FALSE

// query Can you handle COc1cccc(CN2CCC(O)(c3c(F)cc4c(c3F)CN(C3CCC(=O)NC3=O)C4=O)CC2)n1 (stereo not drawn) next?
// result FALSE

// query Can you handle Cc1ccc(CN2CCC(c3cc4c(cc3F)C(=O)N(C3CCC(=O)NC3=O)C4)CC2)cc1 (stereo not drawn) next?
// result TRUE

###

- tested-target: IKZF1 ZNF2_ZNF3 Q1F degron-tagged CD19 CAR (Homo sapiens, UniProt Q13422, Q146F)
- Construct: ZNF2_ZNF3 Q1F degron (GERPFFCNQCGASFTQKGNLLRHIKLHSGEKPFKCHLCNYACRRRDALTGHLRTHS); fused on or other part: anti-CD19 scFv, CD28 transmembrane domain, 4-1BB costimulatory domain, CD3 zeta signaling domain (the CAR that carries the degron), and Nluc
- experimental-protocol: Degradation of Q1F degron-tagged CD19 CAR in Jurkat cells (flow cytometry of CAR levels)
- Type: cell-based
- study-conditions: Jurkat cells expressing CD19 CAR tagged with IKZF1 ZNF2_ZNF3 Q1F; 18 hours at 37° C.; CAR levels normalized to untreated cells; read-out: Q1F Jurkat IC50
observation-type: log10 of DC50 (log10 of the value in nM)
The figures below represent log10 of DC50, where DC50 is stated in nM.

> print(dat)
                                   compound                             tested.target  experimental.value
1  O=C1CCC(N2Cc3c(cc(F)c(C4CCN(Cc5ccc(C(F)(F)F)cc5O)CC4)c3F)C2=O)C(=O)N1 (stereo not shown)  IKZF1 ZNF2_ZNF3 Q1F degron-tagged CD19 CAR (Homo sapiens, UniProt Q13422, Q146F)               -0.33
2  O=C1CCC(N2Cc3c(cc(F)c(C4CCN(Cc5ccc6scnc6c5)CC4)c3F)C2=O)C(=O)N1 (stereo not shown)  IKZF1 ZNF2_ZNF3 Q1F degron-tagged CD19 CAR (Homo sapiens, UniProt Q13422, Q146F)               -0.94
3  O=C1CCC(N2Cc3c(cc(F)c(C4CCN(Cc5ccc6ccccc6n5)CC4)c3F)C2=O)C(=O)N1 (stereo not shown)  IKZF1 ZNF2_ZNF3 Q1F degron-tagged CD19 CAR (Homo sapiens, UniProt Q13422, Q146F)               -0.14
4  O=C1CCC(N2Cc3c(cc(F)c(C4CCN(Cc5ccc6c(c5)OC(F)(F)O6)CC4)c3F)C2=O)C(=O)N1 (stereo not shown)  IKZF1 ZNF2_ZNF3 Q1F degron-tagged CD19 CAR (Homo sapiens, UniProt Q13422, Q146F)               -2.00
5  CC(C)CCN1CCC(c2c(F)cc3c(c2F)CN(C2CCC(=O)NC2=O)C3=O)CC1 (stereo not shown)  IKZF1 ZNF2_ZNF3 Q1F degron-tagged CD19 CAR (Homo sapiens, UniProt Q13422, Q146F)                0.44

// query Given the compound Cc1nc(CN2CCC(c3c(F)cc4c(c3F)CN(C3CCC(=O)NC3=O)C4=O)CC2)c(C)o1 (stereo not shown) , what is its reported log10 of DC50?
// result -0.24

// query Can you handle O=C1CCC(N2Cc3c(cc(F)c(CNC(=O)C4CCC(C(F)(F)F)CC4)c3F)C2=O)C(=O)N1 (stereo not shown) next?
// result 1.39

###

- tested-target: IKZF1 ZNF2_ZNF3 Q1F degron-tagged CD19 CAR (Homo sapiens, UniProt Q13422, Q146F)
- Construct: ZNF2_ZNF3 Q1F degron (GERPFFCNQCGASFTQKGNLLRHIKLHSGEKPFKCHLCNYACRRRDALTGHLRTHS); fused on or other part: anti-CD19 scFv, CD28 transmembrane domain, 4-1BB costimulatory domain, CD3 zeta signaling domain (the CAR that carries the degron), and Nluc
- experimental-protocol: Degradation of Q1F degron-tagged CD19 CAR in Jurkat cells (flow cytometry of CAR levels)
- Type: cell-based
- study-conditions: Ymax is the % protein degraded; Jurkat cells expressing Q1F degron-tagged CD19 CAR; 18 hours; read-out: Q1F Jurkat-YMax
observation-type: Dmax (%)
Could you give me the number in %? Just the number is fine.

Worked cases, Dmax given:
> print(dat)
                                   compound  value.unit  experimental.value
1  O=C1CCC(N2Cc3c(cc(F)c(C4(O)CCN(Cc5ccc6ccccc6n5)CC4)c3F)C2=O)C(=O)N1 (stereo not drawn)           %                  87
2  O=C1CCC(N2Cc3c(cc(F)c(C4CCN(Cc5ccsc5)CC4)c3F)C2=O)C(=O)N1 (stereo not drawn)           %                89.1
3  O=C1CCC(N2Cc3c(cc(F)c(C4(O)CCN(Cc5ccc6ncsc6c5)CC4)c3F)C2=O)C(=O)N1 (stereo not drawn)           %                83.4
4  COCCN1CCC(c2c(F)cc3c(c2F)CN(C2CCC(=O)NC2=O)C3=O)CC1 (stereo not drawn)           %                76.7
5  O=C1CCC(N2Cc3c(cc(F)c(C4CCN(Cc5ccc(C(F)(F)F)cc5O)CC4)c3F)C2=O)C(=O)N1 (stereo not drawn)           %                88.7

// query Given the compound CN(CCN1CCC(c2cc3c(cc2F)C(=O)N(C2CCC(=O)NC2=O)C3)CC1)Cc1ccccc1 (stereo not drawn) , what is its reported Dmax?
// result 85.1

// query Can you handle O=C1CCC(N2Cc3c(cc(F)c(C4CCN(Cc5cccc6ncsc56)CC4)c3F)C2=O)C(=O)N1 (stereo not drawn) next?
// result 92.9

// query Can you handle O=C1CC[C@@H](N2Cc3c(cc(F)c(C4CC5CCC(C4)N5Cc4ccc5ncsc5c4)c3F)C2=O)C(=O)N1 (stereo partly drawn) next?
// result 91.2

// query Can you handle CC(=O)Nc1ccc(CN2CCC(c3c(F)cc4c(c3F)CN(C3CCC(=O)NC3=O)C4=O)CC2)cc1 (stereo not drawn) next?
// result 86.9

// query Can you handle O=C1CCC(N2Cc3c(cc(F)c(C4CCN(Cc5ccc6[nH]ncc6c5)CC4)c3F)C2=O)C(=O)N1 (stereo not drawn) next?
// result 93

###

- tested-target: IKZF1 ZNF2_ZNF3 Q1F degron-tagged CD19 CAR (Homo sapiens, UniProt Q13422, Q146F)
- Construct: ZNF2_ZNF3 Q1F degron (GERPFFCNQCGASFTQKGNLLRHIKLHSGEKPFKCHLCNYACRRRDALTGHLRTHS); fused on or other part: anti-CD19 scFv, CD28 transmembrane domain, 4-1BB costimulatory domain, CD3 zeta signaling domain (the CAR that carries the degron), and Nluc
- experimental-protocol: Degradation of Q1F degron-tagged CD19 CAR in Jurkat cells (flow cytometry of CAR levels)
- Format: cell-based
- study-conditions: Ymax is the % protein degraded; Jurkat cells expressing Q1F degron-tagged CD19 CAR; 18 hours; read-out: Q1F Jurkat-YMax
- Description: Q1F degron-targeting compounds were screened in Jurkat cells engineered to express a IKZF1 ZNF2_ZNF3 Q1F. The cell line was generated with lentiviral vectors containing CD19 CARs tagged with IKZF1 ZNF2_ZNF3 QIF Nluc, which were transduced into Jurkat cells. […] The cells were incubated at 4° C. in the staining reagents for 20 mins and then washed 3 times before being read on the flow cytometer. […] EC50 and Ymin values were calculated using the resulting titration curve. […]
Could you mark each record true (1) if its Dmax falls strictly under 80%, and false (0) if it equals or exceeds it?

> print(dat)
                                   compound                             tested.target  label.class
1  O=C1CCC(N2Cc3c(cc(F)c(C4CCN(Cc5ccc6c(c5)CCC6)CC4)c3F)C2=O)C(=O)N1 (stereo not drawn)  IKZF1 ZNF2_ZNF3 Q1F degron-tagged CD19 CAR (Homo sapiens, UniProt Q13422, Q146F)    false (0)

Please examine the following record next.
// query Just wondering, is Dmax of O=C1CCC(N2Cc3c(cc(F)c(C4CCN(Cc5ccc(Cl)cc5)CC4)c3F)C2=O)C(=O)N1 (stereo not drawn) below 80%?
// result false (0)
